experiment: Metabolic stability / intrinsic clearance in cryopreserved human hepatocytes; conditions: human, cryopreserved human hepatocytes, Half-life (mean), human hepatocytes; 1.0E-06 M
Catalogue of molecules with associated half-life at 1 µM
Report the value in h with no unit label.

# example entries with known answers
INSERT INTO results (molecule, recorded_value) VALUES
  ('CC(C)NCC(O)COc1cccc2ccccc12 (stereo not shown) [Propanolol, Propranolol, reference compound]', 3.12),
  ('C=CCN1CC[C@]23c4c5ccc(O)c4O[C@H]2C(=O)CC[C@@]3(O)[C@H]1C5 [Naloxone, reference compound]', 1.65),
  ('CCCCC[C@@H](C)/C=C(/C)C/C(C)=C/[C@H](C)CCCCCC(=O)O [3-C]', 1.9);

Kindly consider the entry below.
Given CCCCCCCCC[C@H](C)/C=C(/C)C/C(C)=C/[C@H](C)CC(=O)O [1-E] , state its recorded half-life at 1 µM.
3.35

----------
pEC50 reference
biological target: TLX ligand binding domain (Homo sapiens, UniProt Q9Y466); construct: purchased NovAliX SAS, Strasbourg, France; experiment: TLX ligand sensing assay (AlphaScreen, RIP140 NR box peptide recruitment); format: biochemical; details: ALPHA normalized; supplement; read-out: TLX EC50 (dose-response curves)
Sequence (Q9Y466 155-383 limits assumed): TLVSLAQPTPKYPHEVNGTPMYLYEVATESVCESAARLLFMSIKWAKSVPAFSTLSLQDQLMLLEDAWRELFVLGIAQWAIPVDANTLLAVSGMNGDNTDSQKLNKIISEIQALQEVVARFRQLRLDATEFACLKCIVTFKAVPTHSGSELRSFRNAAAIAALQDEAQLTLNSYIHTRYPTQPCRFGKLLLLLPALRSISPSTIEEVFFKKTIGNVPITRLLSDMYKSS
Please treat pEC50 as minus the base-10 logarithm of the molar concentration.

INSERT INTO results (molecule_smiles, recorded_value) VALUES
  ('CCCCC[C@H](C)/C=C(/C)C/C(C)=C/[C@@H](C)CCCCCC(=O)O', 6.05),
  ('CCCCC[C@@H](C)/C=C(/C)C/C(C)=C/[C@@H](C)CCCCCC(=O)O', 5.93),
  ('CCC[C@H](C)/C=C(/C)C/C(C)=C/[C@H](C)CCCCCCCC(=O)O', 5.88);

# input compound: CCCCCCC[C@@H](C)/C=C(/C)C/C(C)=C/[C@H](C)CCCC(=O)O ; wanted: its pEC50
5.82

Would you mind telling me what pEC50 value was observed for CCCCC[C@@H](C)/C=C(/C)C/C(C)=C/[C@H](C)CCCCCC(=O)O ?
6.09

----------
// values below are reported pEC50
target: TLX ligand binding domain (Homo sapiens, UniProt Q9Y466); construct: purchased NovAliX SAS, Strasbourg, France; test: TLX ligand sensing assay (AlphaScreen, RIP140 NR box peptide recruitment); assay type: biochemical; settings: coactivator recruitment; read-out: TLX EC50
// returns pEC50 (minus log10 of molar concentration), number only

INSERT INTO results (compound, recorded_value) VALUES
  ('CCCCC[C@H](C)/C=C(/C)C/C(C)=C/[C@@H](C)CCCCCC(=O)O [3-F]', 6.05),
  ('CCCCCCCC/C=C\CCCCCCCC(=O)O [oleic acid, reference compound]', 5.44),
  ('CCCCCC/C=C(/C)C/C(C)=C/[C@@H](C)CCCCCC(=O)O [3-B]', 6.05);

Name the recorded pEC50 for CCCCC[C@@H](C)/C=C(/C)C/C(C)=C/[C@H](C)CCCCCC(=O)O [3-C] .
6.10

----------
target: GPR40 (FFAR1) (Homo sapiens); assay: PathHunter β-arrestin assay (Eurofins Discovery), GPR40; format: cell-based; details: EC50 ratio vs control oleic acid
Sequence (O14842 whole entry): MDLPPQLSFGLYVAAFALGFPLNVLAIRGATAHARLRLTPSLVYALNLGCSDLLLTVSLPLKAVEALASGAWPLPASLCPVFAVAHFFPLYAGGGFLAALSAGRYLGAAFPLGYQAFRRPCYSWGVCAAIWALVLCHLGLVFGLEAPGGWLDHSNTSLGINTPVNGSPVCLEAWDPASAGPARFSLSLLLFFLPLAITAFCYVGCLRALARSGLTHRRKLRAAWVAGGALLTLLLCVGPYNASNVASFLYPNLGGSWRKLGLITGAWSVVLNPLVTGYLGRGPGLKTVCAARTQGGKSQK
measurement_name: GPR40 potency relative to oleic acid

INSERT INTO results (molecule_smiles, measurement_name, recorded_value) VALUES
  ('CCCCCCC[C@@H](C)/C=C(/C)C/C(C)=C/[C@H](C)CCCC(=O)O', 'GPR40 potency relative to oleic acid', '~7 times'),
  ('CCCCCCC[C@@H](C)/C=C(/C)C/C(C)=C/[C@@H](C)CCCC(=O)O', 'GPR40 potency relative to oleic acid', '~7 times'),
  ('CCCCCCC[C@H](C)/C=C(/C)C/C(C)=C/[C@H](C)CCCC(=O)O', 'GPR40 potency relative to oleic acid', '~7 times');

// below: GPR40 potency relative to oleic acid requested for another compound
Would you mind telling me what GPR40 potency relative to oleic acid value was observed for CCCCCCCCC[C@H](C)/C=C(/C)C/C(C)=C/[C@H](C)CC(=O)O ?
14 times
